- Tested on: U251 CNS
The reply should name one outcome from 1 for active, 0 for inactive

Please review the following examples before continuing.
COMPOUND	TESTED SYSTEM	ASSIGNED LABEL
O=C1C(Cl)=C(Nc2cccc(O)c2)C(=O)N1c1cccc(Cl)c1Cl	U251 CNS	0
COc1cc(-c2cc(CCC(=O)Nc3ccccc3[N+](=O)[O-])n(-c3ccc([N+](=O)[O-])cc3[N+](=O)[O-])n2)ccc1O	U251 CNS	0
CCCCCCCCCC(CCCC(O)CC(=O)O)OC1OC(COC2OC(C)C(O)C(O)C2O)C(O)C(O)C1OC1OC(CO)C(O)C(O)C1OC1OC(C)C(O)C(O)C1O (centres undefined)	U251 CNS	0

Consider the record given below.
Task item: Field: outcome | Entry: Nc1nc2c(c3cnccc13)C(c1cccc(Cl)c1)Cc1cnccc1-2 (centres undefined)
Reply: 1
